Tested On: furin, P09958;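 note: purified furin at 1:10 enzyme:substrate in 50 mM HEPES pH 7.5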
Sequence (P09958 whole entry): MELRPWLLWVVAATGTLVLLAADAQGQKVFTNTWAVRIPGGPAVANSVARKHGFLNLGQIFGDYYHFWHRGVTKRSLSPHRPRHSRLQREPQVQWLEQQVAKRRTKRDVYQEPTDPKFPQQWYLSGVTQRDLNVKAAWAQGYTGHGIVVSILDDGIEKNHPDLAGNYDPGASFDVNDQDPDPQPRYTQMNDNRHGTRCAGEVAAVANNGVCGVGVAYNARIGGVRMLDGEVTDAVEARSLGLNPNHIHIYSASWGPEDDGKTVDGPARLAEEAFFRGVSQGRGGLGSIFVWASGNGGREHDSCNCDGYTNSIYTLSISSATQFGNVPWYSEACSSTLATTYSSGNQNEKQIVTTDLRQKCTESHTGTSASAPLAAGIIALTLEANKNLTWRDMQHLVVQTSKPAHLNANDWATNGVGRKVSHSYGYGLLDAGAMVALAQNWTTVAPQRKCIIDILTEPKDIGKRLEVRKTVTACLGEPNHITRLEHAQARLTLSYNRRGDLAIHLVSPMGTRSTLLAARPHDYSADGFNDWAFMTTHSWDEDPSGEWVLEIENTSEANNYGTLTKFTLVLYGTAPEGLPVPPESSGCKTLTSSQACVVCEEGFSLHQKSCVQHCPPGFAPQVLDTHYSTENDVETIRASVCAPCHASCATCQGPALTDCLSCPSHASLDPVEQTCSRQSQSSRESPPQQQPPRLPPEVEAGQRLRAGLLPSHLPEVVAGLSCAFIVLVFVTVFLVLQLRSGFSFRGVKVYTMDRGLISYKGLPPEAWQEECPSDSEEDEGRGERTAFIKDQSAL
Assay Explanation: furin cleavage Z-score vs untreated control; higher = more cleavage, active = 3.5 or more, inactive = 1 or less, 8 variable residues between constant flanks
Settings: 7.5 min
The list shows a part of the results. The hit rate among all sequences tested is not known here.
Classes used: YES (active), NO (inactive)

>  <Sequence Entry>
CARSRRAVSVAGNASASA [FS-2815]

>  <Label Value>
YES

$$$$
>  <Sequence Entry>
CAEYVVLLFLAGNASASA [HC519]

>  <Label Value>
NO

$$$$
>  <Sequence Entry>
CAEVVTSTDVAGNASASA [HC2231]

>  <Label Value>
NO

$$$$
>  <Sequence Entry>
CAVVLCSMSYAGNASASA [HC2025]

>  <Label Value>
NO

$$$$
>  <Sequence Entry>
CASPVFTDNSAGNASASA [HC764]

>  <Label Value>
NO

$$$$
>  <Sequence Entry>
CARSRRRRRPAGNASASA [FS-1407]

>  <Label Value>
YES

$$$$
>  <Sequence Entry>
CAQEMEECSQAGNASASA [HC1802]

>  <Label Value>
NO

$$$$
>  <Sequence Entry>
CAPPSRRRRPAGNASASA [FS-1052]

>  <Label Value>
NO

$$$$
>  <Sequence Entry>
CATHRRTKRFAGNASASA [FS-1291]

>  <Label Value>
YES

$$$$
>  <Sequence Entry>
CARSRKAVDWAGNASASA [FS-2238]

>  <Label Value>
NO

$$$$
>  <Sequence Entry>
CAIREVPCHRAGNASASA [HC2424]

>  <Label Value>
NO

$$$$
>  <Sequence Entry>
CASYFRKKRSAGNASASA [FS-1288]

>  <Label Value>
YES

$$$$
>  <Sequence Entry>
CATTPCSGNWAGNASASA [HC1921]

>  <Label Value>
NO

$$$$
>  <Sequence Entry>
CARSRRAATSAGNASASA [FS-3092]

>  <Label Value>
YES

$$$$
>  <Sequence Entry>
CARSFRSVTSAGNASASA [FS-3234]

>  <Label Value>
NO

$$$$
>  <Sequence Entry>
CAVSKGWRLLAGNASASA [HC670]

>  <Label Value>
NO

$$$$
>  <Sequence Entry>
CAPIDTTIMAAGNASASA [HC1437]

>  <Label Value>
NO

$$$$
>  <Sequence Entry>
CARSDRSVPSAGNASASA [FS-2236]

>  <Label Value>
NO

$$$$
>  <Sequence Entry>
CAREMRALACAGNASASA [FS-2917]

>  <Label Value>
NO

$$$$
>  <Sequence Entry>
CAEHVRKLRSAGNASASA [FS-990]

>  <Label Value>
YES

$$$$
>  <Sequence Entry>
CAEVPCHRPIAGNASASA [HC2404]

>  <Label Value>
NO

$$$$

All figures here come from the supplement of paper PMC3545927.
